B1: Azoarcus group I ribozyme (parent)
chain: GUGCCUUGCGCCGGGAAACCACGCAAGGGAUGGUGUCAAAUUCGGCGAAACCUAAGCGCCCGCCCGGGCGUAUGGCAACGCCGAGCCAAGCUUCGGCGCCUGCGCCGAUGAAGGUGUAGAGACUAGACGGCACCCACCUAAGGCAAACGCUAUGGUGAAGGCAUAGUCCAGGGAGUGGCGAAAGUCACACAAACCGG

variants of: B1; experiment: reverse-splicing fitness (ratio to wild type); higher = more active; in vitro selection; Mg2+ level not given
measured_metric: reverse-splicing fitness
Reply: number alone, nothing else.

Query :: Quick one: reverse-splicing fitness of C82G A111G C169U U176A ?
Result :: 0.0155

Query :: Quick one: reverse-splicing fitness of C82U A120U A145G C169A ?
Result :: 0.00259

Query :: Quick one: reverse-splicing fitness of A111U A145C C169A U176A ?
Result :: 0.0105

Query :: Quick one: reverse-splicing fitness of C82G A111U A145G C150U C169G U176C ?
Result :: 0.0191

Query :: Quick one: reverse-splicing fitness of C82A A145C U176G ?
Result :: 0.129

Query :: Quick one: reverse-splicing fitness of A111U A120C A145G C150A C169G U176C ?
Result :: 0.0246

Query :: Quick one: reverse-splicing fitness of C82G A111G A120G A145G C150G C169G ?
Result :: 0.00845

Query :: Quick one: reverse-splicing fitness of C82U A120C A145C C150G C169A U176A ?
Result :: 0.00866

Query :: Quick one: reverse-splicing fitness of C82A A120U A145G C150G C169G U176C ?
Result :: 0.00694

Query :: Quick one: reverse-splicing fitness of C82A A111U A120U A145U C150G U176C ?
Result :: 0.00545

Query :: Quick one: reverse-splicing fitness of C82G A120G A145U C169G ?
Result :: 0.0523
